In this section, each of the compounds is paired with its reported Ki.
target: Substance-P receptor (Homo sapiens); test: Displacement of [3H]SP from human recombinant NK1 receptor expressed in CHO cells after 20 mins by liquid scintillation counting
Sequence (P25103 whole entry): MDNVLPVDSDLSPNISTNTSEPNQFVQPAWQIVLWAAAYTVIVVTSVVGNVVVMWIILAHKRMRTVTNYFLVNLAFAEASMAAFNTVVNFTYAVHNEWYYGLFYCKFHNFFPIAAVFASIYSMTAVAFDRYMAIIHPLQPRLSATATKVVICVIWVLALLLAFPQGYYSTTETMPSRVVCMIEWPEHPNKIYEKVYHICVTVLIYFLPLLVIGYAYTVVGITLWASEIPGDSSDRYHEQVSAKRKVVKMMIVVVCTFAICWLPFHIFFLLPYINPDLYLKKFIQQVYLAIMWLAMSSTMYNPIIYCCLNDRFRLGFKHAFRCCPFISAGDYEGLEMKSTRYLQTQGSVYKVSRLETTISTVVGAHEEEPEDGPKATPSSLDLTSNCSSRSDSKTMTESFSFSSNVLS
observation.type: Ki (nM)

>>> reported_value("CC(=O)N1Cc2ccccc2C[C@H]1C(=O)N(C)Cc1cc(C(F)(F)F)cc(C(F)(F)F)c1")
32
>>> reported_value("CC(=O)N[C@H]1Cc2ccccc2CN(CC(=O)N(C)Cc2cc(C(F)(F)F)cc(C(F)(F)F)c2)C1=O")
27
>>> reported_value("CC(=O)N[C@H]1Cc2ccccc2CN(CC(=O)NCc2cc(C(F)(F)F)cc(C(F)(F)F)c2)C1=O")
387
